PROCEDURE SUMMARY: Mean serum concentrations in milk weaned piglets after oral administration
Assay type: in vivo
CONDITION DETAILS: pig, p.o. 50 mg/kg, 60'
RESULT TYPE: concentration at 1 h
// unit must come after the numeric part

Request: # lookup: concentration at 1 h of CCCCC(=O)C=C(C)CC1OCC(CC2OC2C(C)C(C)O)C(O)C1O (stereo not shown)
Result: 1100 ng/mL

###

PROCEDURE SUMMARY: Mouse blood levels of Example 1 following oral and subcutaneous administration
Assay type: in vivo, albino male mice
CONDITION DETAILS: oral 50 mg/kg, 30 min, read-out: blood conc.
RESULT TYPE: concentration at 0.5 h

Request: Find the recorded concentration at 0.5 h belonging to CC(=O)C=C(C)CC1OCC(CC2OC2C(C)C(C)O)C(O)C1O (stereo not shown) [Example 1] and report it.
Result: < 3000 ng/mL
